test.name: Inhibition of recombinant mouse GALK1 using ATP as substrate incubated for 1 hr and measured by Kinase-Glo assay
measurement.setup: read-out: IC50
Parameter: pIC50. Scope: all listed entries.
Note on units: pIC50 is unitless, being -log10 of a concentration expressed in mol/L.

Below, 5 compounds whose answers are already recorded.
{"compound": "CC1=C(C(=O)Nc2cc(C(=O)O)ccn2)C(c2ccccc2Cl)N=C(Nc2nc3cc(F)ccc3o2)N1 (stereo not drawn)", "pIC50": 4.76}
{"compound": "CC1=C(C(=O)Nc2cc(C(=O)O)ccn2)[C@H](c2ccccc2Cl)N=C(Nc2nc3cccc(N)c3o2)N1", "pIC50": 5.76}
{"compound": "CC1=C(C(=O)Nc2ccc(C(=O)O)cc2)C(c2ccccc2Cl)N=C(Nc2nc3ccccc3o2)N1 (stereo not drawn)", "pIC50": 5.21}
{"compound": "CC1=C(C(=O)Nc2cc(C(=O)O)ccn2)C(c2ccccc2Cl)N=C(Nc2nc3c(F)cccc3o2)N1 (stereo not drawn)", "pIC50": 4.66}
{"compound": "CC1=C(C(=O)Nc2cc(C(=O)O)ccn2)C(c2cccc(Cl)c2Cl)N=C(Nc2nc3ccc(F)cc3o2)N1 (stereo not drawn)", "pIC50": 4.66}

Asked: So what does the record say about pIC50 for CC1=C(C(=O)Nc2cc(C(=O)O)ccc2F)C(c2ccccc2Cl)N=C(Nc2nc3ccc(F)cc3o2)N1 (stereo not drawn) ?
Given back: 5.16

Asked: So what does the record say about pIC50 for CCOC(=O)N1C(Nc2nc3ccccc3o2)=NC(c2ccccc2Cl)C(C(=O)Nc2cc(C(=O)O)ccn2)=C1C (stereo not drawn) ?
Given back: 4.71

Asked: So what does the record say about pIC50 for CC1=C(C(=O)Nc2cccc(-c3cn[nH]c3)c2)C(c2ccccc2Cl)N=C(Nc2nc3ccccc3o2)N1 (stereo not drawn) ?
Given back: 4.41
